# reported pEC50; entries follow
assayed system: Glutamate receptor 4 (Homo sapiens)
experimental protocol: Activity at human recombinant iGluR4 flip expressed in HEK293 cells measured as change in intracellular calcium ion concentration in presence of glutamate by FLIPR assay
Format: functional, cell-based
Scale: negative log10 of molar concentration, which is what pEC50 denotes.

{"compound string": "CCc1c(C#N)c(-c2ccc(-c3ccc(OC)cc3)cc2)c(C(=O)O)n1C", "quantitative result": 6.13}
{"compound string": "CCc1c(C#N)c(-c2ccc(-c3ccccc3OC)cc2)c(C(=O)O)n1C", "quantitative result": 6.17}
{"compound string": "CCc1c(C#N)c(-c2ccc(-c3ccc(F)cc3)cc2)c(C(=O)O)n1C", "quantitative result": 6.62}
{"compound string": "CCc1c(C#N)c(-c2ccc(-c3ccccc3F)cc2)c(C(=O)O)n1C", "quantitative result": 7.10}
{"compound string": "CCc1c(C#N)c(-c2ccc(-c3ccccc3C#N)cc2)c(C(=O)O)n1C", "quantitative result": 7.25}
{"compound string": "Cc1c(C#N)c(-c2ccc(-c3ccccc3)cc2)c(C(=O)O)n1C", "quantitative result": 6.27}

Incoming: For "CCc1c(C#N)c(-c2ccc(-c3ccc(Cl)cc3)cc2)c(C(=O)O)n1C" , what is its reported pEC50?
Outgoing: 6.04

Incoming: Same lookup for "CCc1c(C#N)c(-c2ccc(-c3cccc(Cl)c3)cc2)c(C(=O)O)n1C" , please.
Outgoing: 5.97

====

assayed system: Glutamate receptor 2 (Homo sapiens, UniProt P42262)
Sequence (P42262 whole entry): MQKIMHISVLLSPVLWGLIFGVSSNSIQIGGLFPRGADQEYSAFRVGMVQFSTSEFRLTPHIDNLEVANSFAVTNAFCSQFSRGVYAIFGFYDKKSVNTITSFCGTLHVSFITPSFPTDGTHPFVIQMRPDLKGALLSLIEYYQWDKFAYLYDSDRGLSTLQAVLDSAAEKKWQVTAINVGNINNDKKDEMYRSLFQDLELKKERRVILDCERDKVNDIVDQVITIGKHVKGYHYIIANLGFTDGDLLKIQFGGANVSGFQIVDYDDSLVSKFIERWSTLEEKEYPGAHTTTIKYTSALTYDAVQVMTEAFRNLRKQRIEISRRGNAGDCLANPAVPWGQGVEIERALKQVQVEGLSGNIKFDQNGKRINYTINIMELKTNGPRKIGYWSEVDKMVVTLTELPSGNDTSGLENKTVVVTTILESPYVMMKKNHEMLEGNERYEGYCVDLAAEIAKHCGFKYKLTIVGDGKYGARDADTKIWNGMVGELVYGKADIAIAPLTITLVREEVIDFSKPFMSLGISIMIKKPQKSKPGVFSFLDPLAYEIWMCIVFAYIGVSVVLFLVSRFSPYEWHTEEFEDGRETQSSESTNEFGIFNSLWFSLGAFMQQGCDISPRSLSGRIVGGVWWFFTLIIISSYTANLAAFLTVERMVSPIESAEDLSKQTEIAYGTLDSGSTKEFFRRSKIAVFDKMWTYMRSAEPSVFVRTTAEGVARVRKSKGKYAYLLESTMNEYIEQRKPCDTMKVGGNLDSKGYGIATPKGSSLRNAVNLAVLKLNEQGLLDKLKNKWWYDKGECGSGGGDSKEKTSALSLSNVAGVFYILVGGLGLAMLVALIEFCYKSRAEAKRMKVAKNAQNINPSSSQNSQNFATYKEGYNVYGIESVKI
experimental protocol: Activity at human recombinant iGluR2 flop expressed in HEK293 cells measured as change in intracellular calcium ion concentration in presence of glutamate by FLIPR assay
Format: functional, cell-based
EC50 by entry:

Answered cases to consult:
{"compound string": "CCc1c(C#N)c(-c2ccc(-c3cccc(C#N)c3)cc2)c(C(=O)O)n1C", "EC50": "974 nM"}
{"compound string": "Cc1c(C#N)c(-c2ccc(-c3ccccc3)cc2)c(C(=O)O)n1C", "EC50": "391 nM"}
{"compound string": "CCc1c(C#N)c(-c2ccc(-c3cccc(F)c3)cc2)c(C(=O)O)n1C", "EC50": "1490 nM"}
{"compound string": "Cn1cc(C#N)c(-c2ccc(-c3ccccc3)cc2)c1C(=O)O", "EC50": "> 3000 nM"}

Incoming: Form field - read-out: EC50; system: Glutamate receptor 2 (Homo sapiens, UniProt P42262); submitted item: "CCOc1ccccc1-c1ccc(-c2c(C#N)c(CC)n(C)c2C(=O)O)cc1"
Outgoing: 36 nM

Incoming: And the next one, "CSc1sc(C(=O)O)c(-c2ccc(C(C)(C)C)cc2)c1C#N" ?
Outgoing: 309 nM

Incoming: Record: "CCc1c(C#N)c(-c2ccc(-c3ccccc3SC)cc2)c(C(=O)O)n1C"
Outgoing: 32 nM

Incoming: How about this compound: "CSc1c(C#N)c(-c2ccc(-c3ccccc3)cc2)c(C(=O)O)n1C"
Outgoing: 473 nM

Incoming: Another: "CCc1c(C#N)c(-c2ccc(-c3ccccc3OC)cc2)c(C(=O)O)n1C"
Outgoing: 902 nM

Incoming: Please do the same for "CCc1c(C#N)c(-c2ccc(-c3ccc(C)cc3)cc2)c(C(=O)O)n1C" as well.
Outgoing: 1650 nM

Incoming: How about this compound: "CCc1c(C#N)c(-c2ccc(-c3ccc(Cl)cc3)cc2)c(C(=O)O)n1C"
Outgoing: 984 nM

Incoming: Now the compound "CCc1c(C#N)c(-c2ccc(-c3ccc(F)cc3)cc2)c(C(=O)O)n1C"
Outgoing: 1040 nM

Incoming: Further, for "CCc1c(C#N)c(-c2ccc(-c3ccccc3C)cc2)c(C(=O)O)n1C" ?
Outgoing: 990 nM

Incoming: Also, "CCc1c(C#N)c(-c2ccc(-c3ccccc3Cl)cc2)c(C(=O)O)n1C" please.
Outgoing: 55 nM

Incoming: And what about the compound "CCc1c(C#N)c(-c2ccc(-c3ccccc3)cc2)c(C(=O)O)n1C" ?
Outgoing: 398 nM

Incoming: Now consider "CCc1c(C#N)c(-c2ccc(-c3ccccc3C#N)cc2)c(C(=O)O)n1C" and answer again.
Outgoing: 73 nM

Incoming: # repeat for "CCc1c(C#N)c(-c2ccc(-c3cccc(Cl)c3)cc2)c(C(=O)O)n1C"
Outgoing: 900 nM

Incoming: Likewise for "CCc1c(C#N)c(-c2ccc(-c3cccc(C)c3)cc2)c(C(=O)O)n1C" ?
Outgoing: 2130 nM

Incoming: Another: "CCc1c(C#N)c(-c2ccc(-c3ccc(C#N)cc3)cc2)c(C(=O)O)n1C"
Outgoing: 370 nM

Incoming: Query "CCc1c(C#N)c(-c2ccc(-c3cccc(OC)c3)cc2)c(C(=O)O)n1C" next
Outgoing: 924 nM

Incoming: Now consider "CCc1c(C#N)c(-c2ccc(-c3ccc(OC)cc3)cc2)c(C(=O)O)n1C" .
Outgoing: 370 nM

====

assayed system: UniProtKB P42262
experimental protocol: Activity at human recombinant iGluR2 flip expressed in HEK293 cells measured as change in intracellular calcium ion concentration in presence of glutamate by FLIPR assay
Assay type: functional, cell-based
result type: EC50 (nM)
// units = nM; emit number, no label

Would you please look over these solved cases?
{"compound string": "CCc1c(C#N)c(-c2ccc(-c3ccccc3)cc2)c(C(=O)O)n1C", "assayed system": "UniProtKB P42262", "unit name": "nM", "EC50": 103}
{"compound string": "CCc1c(C#N)c(-c2ccc(-c3ccccc3F)cc2)c(C(=O)O)n1C", "assayed system": "UniProtKB P42262", "unit name": "nM", "EC50": 111}
{"compound string": "CCc1c(C#N)c(-c2ccc(-c3ccccc3C#N)cc2)c(C(=O)O)n1C", "assayed system": "UniProtKB P42262", "unit name": "nM", "EC50": 82}
{"compound string": "CCc1c(C#N)c(-c2ccc(-c3ccc(C#N)cc3)cc2)c(C(=O)O)n1C", "assayed system": "UniProtKB P42262", "unit name": "nM", "EC50": 423}
{"compound string": "CCc1c(C#N)c(-c2ccc(-c3ccc(Cl)cc3)cc2)c(C(=O)O)n1C", "assayed system": "UniProtKB P42262", "unit name": "nM", "EC50": 142}
{"compound string": "CCc1c(C#N)c(-c2ccc(-c3cccc(C)c3)cc2)c(C(=O)O)n1C", "assayed system": "UniProtKB P42262", "unit name": "nM", "EC50": 965}

Next up:
Incoming: So what's the measured EC50 for this one? "CCc1c(C#N)c(-c2ccc(-c3cccc(Cl)c3)cc2)c(C(=O)O)n1C"
Outgoing: 186

====

assayed system: Glutamate receptor 2 (Homo sapiens, UniProt P42262)
experimental protocol: Activity at human recombinant iGluR2 flop expressed in HEK293 cells measured as change in intracellular calcium ion concentration in presence of glutamate by FLIPR assay
Assay type: functional, cell-based
result type: EC50

Check out these entries, answers already filled in.
{"compound string": "CCc1c(C#N)c(-c2ccc(-c3ccccc3F)cc2)c(C(=O)O)n1C", "EC50": "143 nM"}
{"compound string": "Cn1c(Br)c(C#N)c(-c2ccc(-c3ccccc3)cc2)c1C(=O)O", "EC50": "> 3000 nM"}

Let's switch to this compound now.
Incoming: Value lookup for EC50; key = "CC(C)Sc1c(C#N)c(-c2ccc(-c3ccccc3)cc2)c(C(=O)O)n1C"
Outgoing: > 3000 nM

====

assayed system: Glutamate receptor 4 (Homo sapiens, UniProt P48058)
Sequence (P48058 whole entry): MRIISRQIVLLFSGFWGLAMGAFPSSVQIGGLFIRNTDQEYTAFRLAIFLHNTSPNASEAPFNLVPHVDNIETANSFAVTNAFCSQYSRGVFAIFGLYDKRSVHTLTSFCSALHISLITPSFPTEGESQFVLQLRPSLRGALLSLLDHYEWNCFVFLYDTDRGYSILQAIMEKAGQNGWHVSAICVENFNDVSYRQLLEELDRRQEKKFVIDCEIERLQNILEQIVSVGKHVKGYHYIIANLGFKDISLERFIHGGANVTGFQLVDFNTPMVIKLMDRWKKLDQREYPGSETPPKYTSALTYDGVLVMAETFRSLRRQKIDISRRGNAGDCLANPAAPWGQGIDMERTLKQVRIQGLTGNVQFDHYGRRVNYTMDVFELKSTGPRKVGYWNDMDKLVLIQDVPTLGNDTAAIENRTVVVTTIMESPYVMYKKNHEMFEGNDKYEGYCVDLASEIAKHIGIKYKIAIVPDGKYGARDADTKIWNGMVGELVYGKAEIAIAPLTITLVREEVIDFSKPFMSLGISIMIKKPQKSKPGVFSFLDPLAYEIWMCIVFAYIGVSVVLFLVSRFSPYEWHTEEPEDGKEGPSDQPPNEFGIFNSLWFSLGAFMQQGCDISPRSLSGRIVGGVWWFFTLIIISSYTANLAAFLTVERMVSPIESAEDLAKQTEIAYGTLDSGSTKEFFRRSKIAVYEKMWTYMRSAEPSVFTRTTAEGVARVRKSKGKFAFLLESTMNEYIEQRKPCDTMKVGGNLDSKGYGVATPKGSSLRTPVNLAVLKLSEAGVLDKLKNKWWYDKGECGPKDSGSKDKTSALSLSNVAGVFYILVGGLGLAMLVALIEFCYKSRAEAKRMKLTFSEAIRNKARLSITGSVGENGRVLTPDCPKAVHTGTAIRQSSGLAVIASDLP
experimental protocol: Activity at human recombinant iGluR4 flop expressed in HEK293 cells measured as change in intracellular calcium ion concentration in presence of glutamate by FLIPR assay
Format: functional, cell-based
Catalogue of EC50 values

Study these solved cases before continuing.
{"compound string": "Cc1c(C#N)c(-c2ccc(-c3ccccc3)cc2)c(C(=O)O)n1C", "assayed system": "Glutamate receptor 4 (Homo sapiens, UniProt P48058)", "EC50": "2.39 µM"}
{"compound string": "CCc1c(C#N)c(-c2ccc(-c3ccc(C)cc3)cc2)c(C(=O)O)n1C", "assayed system": "Glutamate receptor 4 (Homo sapiens, UniProt P48058)", "EC50": "> 3 µM"}
{"compound string": "CCc1c(C#N)c(-c2ccc(-c3ccc(F)cc3)cc2)c(C(=O)O)n1C", "assayed system": "Glutamate receptor 4 (Homo sapiens, UniProt P48058)", "EC50": "2.95 µM"}
{"compound string": "CCc1c(C#N)c(-c2ccc(-c3cccc(Cl)c3)cc2)c(C(=O)O)n1C", "assayed system": "Glutamate receptor 4 (Homo sapiens, UniProt P48058)", "EC50": "> 3 µM"}
{"compound string": "CCc1c(C#N)c(-c2ccc(-c3cccc(C#N)c3)cc2)c(C(=O)O)n1C", "assayed system": "Glutamate receptor 4 (Homo sapiens, UniProt P48058)", "EC50": "> 3 µM"}

In the following, a different molecule is considered.
Incoming: Can you look up EC50 on Glutamate receptor 4 (Homo sapiens, UniProt P48058) for "CCc1c(C#N)c(-c2ccc(-c3ccccc3OC)cc2)c(C(=O)O)n1C" ?
Outgoing: 0.386 µM
